# subject.of.test: glucagon receptor (GCGR) overexpressed CHO-K1 cells or human primary hepatocytes (Homo sapiens, UniProt P47871)
# Construct: expressed in transfected cells; host or cells: GCGR overexpressed CHO-K1 cells or human primary hepatocytes (endogenous receptor)
# Sequence (P47871 26-477): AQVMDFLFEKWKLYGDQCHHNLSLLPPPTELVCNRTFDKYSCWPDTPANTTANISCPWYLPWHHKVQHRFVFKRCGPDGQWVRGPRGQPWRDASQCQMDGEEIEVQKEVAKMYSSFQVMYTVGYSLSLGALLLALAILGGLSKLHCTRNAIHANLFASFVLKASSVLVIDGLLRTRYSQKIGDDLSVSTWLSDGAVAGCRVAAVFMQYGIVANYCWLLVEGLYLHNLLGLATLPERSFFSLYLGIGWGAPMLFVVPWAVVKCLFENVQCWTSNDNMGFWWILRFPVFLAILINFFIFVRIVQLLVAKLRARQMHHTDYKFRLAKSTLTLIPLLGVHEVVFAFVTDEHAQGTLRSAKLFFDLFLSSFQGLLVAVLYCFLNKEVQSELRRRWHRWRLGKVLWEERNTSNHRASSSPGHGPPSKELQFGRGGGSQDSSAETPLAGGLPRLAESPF
# assay.explanation: Glucagon cAMP inhibition assay (Cisbio cAMP Dynamic 2 HTRF)
# Type: cell-based
Strictly below 5 µM in IC50 cAMP: Condition met. Otherwise: Condition not met.

These solved cases illustrate the format of a correct answer.
IN: Input CC(C)COC[C@H](Cc1ccc(-c2ccccc2C(F)(F)F)cc1)Nc1ccc(C(=O)NCCC(=O)O)cc1 [Compound 19-29] ; condition: IC50 cAMP strictly below 5 µM. Does it hold?
OUT: Condition met

IN: Record CC[C@H](C)[C@@H](COc1nnc(-c2ccc(C(F)(F)F)cc2Cl)o1)Nc1ccc(C(=O)NCCC(=O)O)cc1 [Compound 22-19] : is its IC50 cAMP strictly below 5 µM?
OUT: Condition not met

IN: Given the entry O=C(O)CCNC(=O)c1ccc(N[C@@H](Cc2ccccc2)C(=O)Nc2ccc(-c3ccccc3C(F)(F)F)cc2)cc1 [Compound 23-23] , would its reported IC50 cAMP be below 5 µM?
OUT: Condition not met

***
IN: Problem: For the compound CCOC(=O)CCNC(=O)c1ccc(N[C@H](Cc2ccc(-c3ccc(C(F)(F)F)cc3)cc2)C(=O)Nc2ccc(OC(F)(F)F)cc2)cc1 [Compound 24-27] , is IC50 cAMP under 5 µM?
OUT: Condition met

IN: Given the entry O=C(NCc1nn[nH]n1)c1ccc(N[C@H](COc2ccc(-c3cc4ccccc4o3)cn2)c2ccccc2)cc1 [Compound 15-1] , would its reported IC50 cAMP be below 5 µM?
OUT: Condition not met

IN: Bench note: check whether CC(C)C[C@H](Nc1ccc(C(=O)NCCC(=O)O)cc1)C(=O)Nc1ccc(-c2ccc(Cl)cc2Cl)cc1 [Compound 23-1] shows IC50 cAMP below 5 µM
OUT: Condition met

IN: Decide: IC50 cAMP of O=C(O)CCNC(=O)c1ccc(N[C@H](COc2ccc(-c3cc4ccccc4o3)cn2)c2ccc(-c3ccc(C(F)(F)F)cc3)cc2)cc1 [Compound 15-29] strictly below 5 µM?
OUT: Condition met

IN: Item CC(C)(C)c1nnc(-c2ccc(OC[C@@H](Nc3ccc(C(=O)NCCC(=O)O)cc3)c3ccc(-c4ccc(C(F)(F)F)cc4)cc3)nc2)o1 [Compound 15-30] : IC50 cAMP beneath 5 µM, strictly?
OUT: Condition not met

----------
# subject.of.test: glucagon receptor (GCGR) overexpressed CHO-K1 cells or human primary hepatocytes (Homo sapiens)
# Construct: expressed in transfected cells; host or cells: GCGR overexpressed CHO-K1 cells or human primary hepatocytes (endogenous receptor)
# assay.explanation: Glucagon cAMP inhibition assay (Cisbio cAMP Dynamic 2 HTRF)
# Format: cell-based
Measured IC50 cAMP by item
Field format: number, assumed nM, no unit text.

IN: Tell us which IC50 cAMP value is on record for CCOC(=O)CCNC(=O)c1ccc(N[C@@H](Cc2cccc3ccccc23)C(=O)Nc2ccc(C(C)(C)C)cc2)cc1 [Compound 23-17]
OUT: 7400

IN: Fill in reported IC50 cAMP for this entry: CC(C)[C@@H](COc1ccc(-c2nc3ccccc3s2)cn1)Nc1ccc(C(=O)NCCC(=O)O)cc1 [Compound 15-37]
OUT: 1609

IN: Give reported IC50 cAMP value for CC[C@H](C)[C@@H](COc1ccc(-c2ccc(C(F)(F)F)cc2F)cn1)Nc1ccc(C(=O)NCCC(=O)O)cc1 [Compound 15-14]
OUT: 280.6

IN: Please supply the value of reported IC50 cAMP for the item CCCC[C@H](Cc1ccc(-c2ccc(C(C)(C)C)cc2)cc1)Nc1ccc(C(=O)NCCC(=O)O)cc1 [Compound 19-7]
OUT: 731

IN: Fill in reported IC50 cAMP for this entry: CCCC[C@@H](COc1ccc(-c2cc3ccccc3o2)c(C)n1)Nc1ccc(C(=O)NCCC(=O)O)cc1 [Compound 18-1]
OUT: 250
